Data origin: patent US20260285853A1

- Tested on: MYB mRNA
- PROCEDURE TEXT: Splicing RT-qPCR assay, canonical (CJ) and alternative (AJ) junction mRNA, K562 cells
- Type: cell-based
- TEST SETTINGS: Homo sapiens, K562.3 cells, 24 hours, read-out: MYB AJ (AC50, increase in AJ mRNA)
Where a name gives a salt, the structure may show the parent alone.
The compounds listed here are annotated with their AC50.

>  <COMPOUND>
Cc1cn2cc(NC(=O)c3ccc(N4CCC5NCCC5C4)c4cn(C)nc34)cc(F)c2n1 (stereo not shown) [Compound 169, 2,2,2-trifluoroacetate]

>  <RECORDED VALUE>
100 to 1000 nM

$$$$

q: Identify the reported AC50 for the following entry. Cc1cn2cc(NC(=O)c3ccc(N4C[C@@H](C)N[C@@H](C)C4)c4nnn(C)c34)cc(F)c2n1
a: > 10000 nM

q: Identify the reported AC50 for the following entry. Cc1cn2cc(NC(=O)c3ccc(N4C[C@H](C)N[C@@H](C)C4)c4[nH]nnc34)cc(F)c2n1
a: > 10000 nM

q: Identify the reported AC50 for the following entry. COc1c(NC(=O)c2ccc(N3CCNCC3)c3cn[nH]c23)cn2cc(C)nc2c1F
a: < 100 nM

q: Identify the reported AC50 for the following entry. Cc1cn2cc(NS(=O)(=O)c3ccc(N4C[C@@H](C)N[C@@H](C)C4)c4cn(C)nc34)cc(F)c2n1
a: > 10000 nM

q: Identify the reported AC50 for the following entry. CCNC1CCN(c2ccc(C(=O)Nc3cc(F)c4nc(C)cn4c3)c3nnn(C)c23)CC1
a: 100 to 1000 nM

q: Identify the reported AC50 for the following entry. COc1nc2c(C(=O)Nc3cc(F)c4nc(C)cn4c3)ccc(N3CCC(N)CC3)c2s1
a: < 100 nM

q: Identify the reported AC50 for the following entry. Cc1cn2cc(NC(=O)c3ccc(N4C[C@@H](C)N[C@@H](C)C4)c4[nH]nnc34)cc(F)c2n1 [Compound 243, hydrochloride]
a: > 10000 nM

q: Identify the reported AC50 for the following entry. CN[C@H]1CCN(c2c(O)cc(C(=O)Nc3cc(F)c4nc(C)cn4c3)c3nn(C)cc23)C1
a: 1000 to 10000 nM
